# study_target: Heat shock factor protein 1 (Mus musculus, UniProt P38532)
# Sequence (P38532 whole entry): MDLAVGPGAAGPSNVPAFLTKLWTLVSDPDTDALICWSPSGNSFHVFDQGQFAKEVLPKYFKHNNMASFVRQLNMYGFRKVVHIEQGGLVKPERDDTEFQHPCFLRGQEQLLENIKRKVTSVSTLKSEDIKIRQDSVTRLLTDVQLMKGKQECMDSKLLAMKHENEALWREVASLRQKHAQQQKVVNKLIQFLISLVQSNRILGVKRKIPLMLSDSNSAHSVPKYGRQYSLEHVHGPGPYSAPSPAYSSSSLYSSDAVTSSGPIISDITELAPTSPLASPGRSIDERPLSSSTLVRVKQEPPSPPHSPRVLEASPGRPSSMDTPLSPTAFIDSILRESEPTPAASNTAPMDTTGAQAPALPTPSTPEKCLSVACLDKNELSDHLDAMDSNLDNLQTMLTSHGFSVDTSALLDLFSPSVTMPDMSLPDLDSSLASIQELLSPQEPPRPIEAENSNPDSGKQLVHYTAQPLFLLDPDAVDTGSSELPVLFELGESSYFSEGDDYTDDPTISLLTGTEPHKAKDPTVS
# assay: enhancement of HSF1-driven luciferase signal – cell-based, NIH3T3, luminescence, dose retest, confirmation (AID 435004);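 also: stress induced by proteasome inhibitor MG132 added 30 min after compound; luciferase reporter driven by HSF1 response element in NIH3T3 cells; actives raise luminescence as potentiators of the MG132 stress response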
# Type: functional
Active and inactive are the calls of the source. Rule as the data show it: actives have a measured EC50 and inactives only a lower limit.
experimental_readout: EC50

compound: CC1(c2cccs2)CC(c2cccs2)=C(C#N)C(=O)N1 (stereo unspecified)
reported_value: > 260 µM (inactive)

compound: Cn1c(CCCOc2ccc(Cl)cc2Cl)nnc1SCC(=O)Nc1cccc(F)c1
reported_value: 181 µM (active)

compound: O=C(c1ccco1)c1coc2c1cc(O)c1ccccc12
reported_value: 65.4 µM (active)

compound: COC(=O)Nc1ccc(S(=O)(=O)Nc2cccc3ccccc23)cc1
reported_value: > 260 µM (inactive)

compound: O=C(Cc1cccs1)NCc1ccccc1Br
reported_value: > 260 µM (inactive)

compound: O=S(=O)(NCc1ccccn1)c1ccc2ccccc2c1
reported_value: > 260 µM (inactive)

Source: ChEMBL document CHEMBL1201862
